molecular target: EPHB1 (UniProt P54762); test: phosphorylation enrichment, bacterial display (enrichment ratio); higher = better substrate or ligand; peptides without Tyr show the background;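 also: 11-residue human phosphosite peptides and single-mutation variants displayed on the E. coli surface, counted by deep sequencing, each peptide's frequency after selection divided by its frequency in the unselected input library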;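 also: frequency after pTyr selection over input frequency; kinase dosed for 20-30% of maximal phosphorylation in three min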
Sequence (P54762 whole entry, looked up): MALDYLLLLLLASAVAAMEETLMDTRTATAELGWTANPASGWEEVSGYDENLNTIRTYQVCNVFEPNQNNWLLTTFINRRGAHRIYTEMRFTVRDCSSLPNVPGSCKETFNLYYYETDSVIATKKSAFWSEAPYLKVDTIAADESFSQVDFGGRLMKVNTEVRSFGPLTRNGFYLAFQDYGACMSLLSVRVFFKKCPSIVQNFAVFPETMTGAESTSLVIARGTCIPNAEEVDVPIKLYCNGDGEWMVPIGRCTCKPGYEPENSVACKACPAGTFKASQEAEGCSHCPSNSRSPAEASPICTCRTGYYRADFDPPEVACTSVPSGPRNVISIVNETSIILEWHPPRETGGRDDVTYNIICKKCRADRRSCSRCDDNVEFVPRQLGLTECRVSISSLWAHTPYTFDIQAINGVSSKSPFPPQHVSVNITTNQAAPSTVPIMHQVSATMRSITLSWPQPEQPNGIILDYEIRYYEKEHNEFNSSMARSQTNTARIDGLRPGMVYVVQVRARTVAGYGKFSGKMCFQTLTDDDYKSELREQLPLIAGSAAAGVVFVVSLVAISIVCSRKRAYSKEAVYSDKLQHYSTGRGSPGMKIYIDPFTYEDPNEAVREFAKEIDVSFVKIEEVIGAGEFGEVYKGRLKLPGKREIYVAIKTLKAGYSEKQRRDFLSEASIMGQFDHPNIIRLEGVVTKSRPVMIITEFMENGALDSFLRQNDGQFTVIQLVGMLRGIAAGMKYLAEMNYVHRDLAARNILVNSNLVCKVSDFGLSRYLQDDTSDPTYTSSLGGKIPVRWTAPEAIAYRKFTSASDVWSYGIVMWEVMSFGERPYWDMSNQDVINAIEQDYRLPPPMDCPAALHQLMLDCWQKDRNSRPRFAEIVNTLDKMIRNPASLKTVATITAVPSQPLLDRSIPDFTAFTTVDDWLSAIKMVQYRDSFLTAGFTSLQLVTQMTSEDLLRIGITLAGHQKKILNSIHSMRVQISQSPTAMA
QUANTITY_KIND: phosphorylation enrichment

For QCTSAYLLQPE [NANS_Y188_P189L] the sequence record lists phosphorylation enrichment as 0.555

Given item SLFNGYVFSGV [NEIL3_Y71_YF] , the value recorded as its phosphorylation enrichment is 0.514

// sample AELKLYSGAQT [ZAP70_Y178_R175L] , its phosphorylation enrichment was 0.567

# sequence TSNQEYLDLSM [FGFR1_Y766] ; its phosphorylation enrichment = 0.8

Recorded result, APSHAYHGGVL [ANO1_Y981] , phosphorylation enrichment: 0.371

Memo: LIFVSYDDWDY [GRIN2A_Y281_S278F] , reported phosphorylation enrichment: 1.8

For PAIFTYDEFKK [COL8A2_Y648_T645I_YF] the sequence record lists phosphorylation enrichment as 0.398

The recorded phosphorylation enrichment for RQLEIYRASRP [ERCC4_Y594] is 0.388
